- System: SF-539
- Protocol Summary: NCI tumour cell line growth inhibition, 48 h
The source made the active and inactive calls. Cut-off read from the data, not from the text of the source: active = GI50 up to about 1.1 µM and inactive = higher.
Endpoint Name: GI50

O=C(c1ccccn1)c1nc(-c2ccc(Cl)c(Cl)c2)nc2ccc(Cl)cc12 = 18.1 µM (inactive)
O=C1CC(c2ccc(Cl)cc2)C2(C(=O)NC(=O)NC2=O)C(c2ccc(Cl)cc2)C1 (centres undefined) = 28.2 µM (inactive)
COC(=O)Cc1cc(O)c2c(c1O)C(=O)c1ccccc1C2=O = 35.9 µM (inactive)
O=[N+]([O-])c1ccc2[nH]ncc2c1Cl = 36.7 µM (inactive)

---

- Test system: SNB-75
- Protocol Summary: NCI tumour cell line growth inhibition, 48 h
The source made the active and inactive calls. No stated cut-off is given here; in the data, active = GI50 up to about 1.1 µM and inactive = higher.
Endpoint Name: GI50

Cn1c(C(O)C2(c3cccnc3)SCCCS2)cc2ccccc21 (stereo unspecified) = 73.3 µM (inactive)
CC(C)(C)c1ccc2c(c1)C(O)(c1ccccc1)c1cc(C(C)(C)C)ccc1C2(O)C(F)(F)F (stereo unspecified) = 2.13 µM (inactive)
CC(O)C(N/C=C1/N=C(c2ccccc2)OC1=O)C(=O)O (stereo unspecified) = > 100 µM (inactive)
O=C(O)Cn1c(=O)[nH]c(=O)c2[nH]cnc21 = > 100 µM (inactive)
Cc1ccc(C)c(NC(=O)CCC(=O)CC(=O)C(C)(C)C)c1 = > 100 µM (inactive)
Cc1ccc(-c2cc[n+]3c(n2)oc2ccccc23)cc1 = 25 µM (inactive)
